Reference source: patent US20210315893A1

The entries below come with measured EC50 values attached.
Target: S1PR2 (Homo sapiens, UniProt O95136)
Construct: expressed in transfected cells
Sequence (O95136 whole entry): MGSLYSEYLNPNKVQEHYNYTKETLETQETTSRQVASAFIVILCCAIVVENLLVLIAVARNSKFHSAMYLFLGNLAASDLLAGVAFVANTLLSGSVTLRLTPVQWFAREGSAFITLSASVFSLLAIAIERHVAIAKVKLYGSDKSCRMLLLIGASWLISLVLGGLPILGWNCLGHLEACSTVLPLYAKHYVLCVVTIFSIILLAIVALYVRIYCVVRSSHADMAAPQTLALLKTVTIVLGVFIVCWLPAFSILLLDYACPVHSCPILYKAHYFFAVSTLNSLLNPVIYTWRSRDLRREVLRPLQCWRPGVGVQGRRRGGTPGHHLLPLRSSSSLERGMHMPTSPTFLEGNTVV
Assay: S1PR2 binding assay (competition with radioactively labeled S1P, SpA)
Conditions: membranes from stable cell line over expressing S1PR2, SpA beads; read-out: S1P2 EC50 (nM), S1PR2 binding EC50
Method: The following assay can be used for determination of S1PR2 binding. The binding assay measures the potential to compete with radioactively labeled S1P for binding to the receptor. The assay is performed in a96 well plate where the following reagents are added. […] Plates are read on a Topcount reader (Perkin Elmer) immediately after centrifugation (readout time, 1 min/well).
REPORTED_PROPERTY: EC50

- O=C(Cn1nc(Cc2nc3cc(Cl)c(OCC4CC4)c(F)c3[nH]2)c2ccccc2c1=O)N1CCOCC1 [Compound 149]: 142 nM
- O=C(O)Cn1nc(Cc2nc3cc(OCC(F)F)c(Cl)cc3[nH]2)c2c(F)ccc(F)c2c1=O [Compound 126]: 93.5 nM
- O=c1c2ccccc2c(Cc2nc3cc(Cl)c(OC(F)(F)F)cc3[nH]2)nn1CC1CCCCO1 (stereo not drawn) [Compound 35]: 5410 nM
- N#Cc1cc2[nH]c(Cc3nn(CC(=O)NC4CCOC4)c(=O)c4ccccc34)nc2cc1OCC(F)F (stereo not drawn) [Compound 178]: 188 nM
- N#Cc1cc2nn(Cc3nn(CC(=O)O)c(=O)c4ccccc34)cc2cc1OCC1CC1 [Compound 135]: 178 nM
- COC(C)(C)CNC(=O)Cn1nc(Cc2nc3cc(OCC(F)F)c(C#N)cc3[nH]2)c2ccccc2c1=O [Compound 182]: 53.4 nM
- N#Cc1cc2[nH]c(Cc3nn(C(CN4CCC4)C(=O)O)c(=O)c4ccccc34)nc2cc1OCC(F)F (stereo not drawn) [Compound 75]: 2920 nM
- CC1(C)CCN(C(=O)Cn2nc(Cc3nc4cc(OCC(F)F)c(C#N)cc4[nH]3)c3ccccc3c2=O)C1 [Compound 233]: 210 nM
- O=C(O)Cn1nc(Cn2cc3cc(OCC(F)(F)F)c(Cl)cc3n2)c2ccccc2c1=O [Compound 252]: 239 nM
- CC(C(=O)O)n1nc(Cn2cc3cc(OCC4CC4)c(Cl)cc3n2)c2cc(C#N)ccc2c1=O (stereo not drawn) [Compound 92]: 32.1 nM
- O=c1c2ccccc2c(Cc2nc3cc(Cl)c(OC(F)(F)F)cc3[nH]2)nn1C1CCNCC1 [Compound 62]: 453 nM
- N#CCCN(C(=O)Cn1nc(Cc2nc3cc(OCC(F)F)c(C#N)cc3[nH]2)c2ccccc2c1=O)C1CC1 [Compound 181]: 297 nM
- N#Cc1cc2[nH]c(Cc3nn(CC(=O)N4CCOCC4)c(=O)c4ccccc34)nc2cc1OCC(F)(F)F [Compound 175]: 78.9 nM
- O=C(O)Cn1nc(Cn2cc3cc(OCC(F)F)c(Cl)cc3n2)c2ccccc2c1=O [Compound 253]: 182 nM
- CC(C(=O)O)n1nc(Cn2cc3cc(OCC(F)F)c(Cl)cc3n2)c2ccccc2c1=O (stereo not drawn) [Compound 76]: 317 nM
